Biological target: CYP3A4 (Homo sapiens)
Assay: Determination of compound Kiapp against recombinant CYP3A4 enzyme (BFC fluorescent substrate)
Assay type: biochemical
Details: Super. enzyme preparation, read-out: Kiapp (BFC, Super.)

| Compound | Unit of measure | Ki |
| --- | --- | --- |
| CCCN(CCOC)C(=O)c1ccccc1S(=O)(=O)Nc1cncc(OC)c1 [Example 246] | nM | 18.5 |
| Cc1ccncc1NS(=O)(=O)c1ccccc1C(=O)N(C)Cc1ccc(F)c(F)c1 [Example 172] | nM | 21.7 |
| COc1ccncc1NS(=O)(=O)c1ccccc1C(=O)NCCc1ccccc1C [Example 275] | nM | 3.76 |

----------
Target: CYP3A4 (Homo sapiens, UniProt P08684)
Sequence (P08684 whole entry): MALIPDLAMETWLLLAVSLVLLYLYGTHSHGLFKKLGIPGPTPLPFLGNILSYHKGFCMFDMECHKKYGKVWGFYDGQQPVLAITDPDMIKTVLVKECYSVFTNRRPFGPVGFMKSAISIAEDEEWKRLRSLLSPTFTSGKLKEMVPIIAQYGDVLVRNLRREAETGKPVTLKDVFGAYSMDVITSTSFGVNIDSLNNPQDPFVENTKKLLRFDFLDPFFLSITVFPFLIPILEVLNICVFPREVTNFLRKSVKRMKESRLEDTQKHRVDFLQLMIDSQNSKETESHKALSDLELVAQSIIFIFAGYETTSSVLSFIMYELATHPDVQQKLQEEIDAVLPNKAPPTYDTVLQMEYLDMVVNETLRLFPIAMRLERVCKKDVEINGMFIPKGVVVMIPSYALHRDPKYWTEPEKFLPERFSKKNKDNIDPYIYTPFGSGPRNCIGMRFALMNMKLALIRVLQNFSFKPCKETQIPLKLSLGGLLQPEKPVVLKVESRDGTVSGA
Experiment: Determination of IC50 against CYP3A4 by measurement of inhibition of testosterone metabolism (human liver microsomes, 6-β-OH-testosterone by LC-MS/MS)
Assay type: biochemical
Set-up: 0.1 mg/mL human liver microsomes
Details: read-out: IC50 (Testo.)
Method: 2. Determination of IC50 Against CYP3A4 by Measurement of Inhibition of Testosterone Metabolism This assay was performed using a standard 96 well plate design. […] Quantitation of metabolite peak area ratio against an internal standard is determined by LC-MS/MS analysis. The production of 6-β-OH-testosterone from testosterone metabolism is determined after incubation for eight minutes by comparison to a standard curve generated for the metabolite […]
pIC50: −log10 of the molar value.
# maps each entry to its pIC50

| Compound | Value modifier | pIC50 |
| --- | --- | --- |
| Cc1cncc(NS(=O)(=O)c2ccccc2C(=O)NCCC(C)C)c1 | = | 7.36 |
| CCOc1cncc(NS(=O)(=O)c2ccccc2C(=O)NC(C)(C)CC)c1 | = | 7.41 |
| COc1ccncc1NS(=O)(=O)c1ccccc1C(=O)NCc1ccc(F)c(F)c1 | = | 7.85 |
| CN(Cc1ccc(F)c(F)c1)C(=O)c1ccccc1S(=O)(=O)Nc1cncc(F)c1 | = | 7.09 |
| Cc1ccncc1NS(=O)(=O)c1ccccc1C(=O)NC(C)(C)C | = | 7.01 |
| O=C(NCc1ccc(F)c(F)c1)c1ccccc1S(=O)(=O)Nc1cccnc1 | = | 7.39 |
| CCCCNC(=O)c1ccccc1S(=O)(=O)Nc1cncc(OCC)c1 | = | 7.32 |
| CC(C)(C)NC(=O)c1ccccc1S(=O)(=O)Nc1cccnc1 | = | 7.22 |
| CCOc1ccncc1NS(=O)(=O)c1ccccc1C(=O)NC(C)C1CC1 (stereo not drawn) | = | 7.28 |
| O=C(NCCOc1ccccc1)c1ccccc1S(=O)(=O)Nc1cccnc1 | = | 7.21 |
| COc1cncc(NS(=O)(=O)c2ccccc2C(=O)NCc2ccccc2F)c1 | = | 7.85 |
| COc1cncc(NS(=O)(=O)c2ccccc2C(=O)NCCN2CCCCC2)c1 | < | 6.12 |

----------
Target: CYP3A4 (Homo sapiens)
Test: Determination of compound Kiapp against recombinant CYP3A4 enzyme (BFC fluorescent substrate)
Type: biochemical
Conditions: Baculo. enzyme preparation, read-out: Kiapp (BFC, Baculo.)
pKi: −log10 of the molar value.
Below, each entry is listed alongside its reported pKi.

| Mol | Target of assay | pKi |
| --- | --- | --- |
| CCOc1cncc(NS(=O)(=O)c2ccccc2C(=O)NCC2CC2)c1 | CYP3A4 (Homo sapiens) | 6.57 |
| CC(C)(CN1CCCC1)NC(=O)c1ccccc1S(=O)(=O)Nc1cccnc1 | CYP3A4 (Homo sapiens) | 6.07 |
| COCCN(C(=O)c1ccccc1S(=O)(=O)Nc1cncc(C)c1)C(C)C | CYP3A4 (Homo sapiens) | 6.87 |
| Cc1cncc(NS(=O)(=O)c2ccccc2C(=O)NCCc2ccccc2OC(F)(F)F)c1 | CYP3A4 (Homo sapiens) | 7.80 |
| COc1cncc(NS(=O)(=O)c2ccc(OC3CCNCC3)cc2C(=O)NCc2ccc(F)cc2)c1 | CYP3A4 (Homo sapiens) | 7.46 |
